Collected activity change, negative = inhibition values appear next to each entry.
- Assay Remarks: AP1 Signaling Pathway (AID 357);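 also: ME-180 reporter cells stimulated with EGF at its EC50 level; % is scaled to controls: 0 for no effect and ±100 for the full control effect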
- Experimental Parameters: ME-180 (cervical carcinoma) AP-1-bla reporter, EGF-induced, beta-lactamase ratio, 5 h; at 7.69 µM (top of the series) unless noted
Inconclusive results are not listed. Active and inactive are the calls of the source. Calls follow the shape of the dose curve; as a rule, active = well fitted curve in either direction with a large enough effect (not every such curve was filed as active); inconclusive = small, poorly fitted or top-dose-only effect, or another doubt; inactive = flat fitted curve, though single readings scatter.

Please review the entries below; each comes with its answer.
Compound	activity change, negative = inhibition
c1ccc(SCCc2ccncc2)cc1	9.37% (inactive)
NCCc1nc(-c2nc(C(=O)O)cs2)cs1	-1.29% (inactive)
N#C[C@H](c1ccccc1)N1CCCN([C@@H](C#N)c2ccccc2)C1c1ccccc1O (stereo not given in full)	8.03% (inactive)

Okay, now this compound:
Query block: Entry `CC1(C)[C@@H]2CC[C@@](C)(C2)[C@H]1OC(=O)c1ccccc1C(=O)O` : reported activity change, negative = inhibition = ?
Result block: -1.12% (inactive)

====

Collected activity change, negative = inhibition values appear next to each entry.
- Assay Remarks: NFAT Signaling Pathway (AID 444);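 also: carbachol stimulus at about its EC50 of 1 µM final; % is scaled to controls: 0 for no effect and ±100 for the full control effect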
- Experimental Parameters: Jurkat NFAT-bla M1, carbachol, beta-lactamase ratio, 5 h; at 7.69 µM (top of the series) unless noted
Inconclusive results are not listed. Activity calls are given as the source filed them. Calls come from the whole dose curve; as a rule, active = well fitted curve in either direction with a large enough effect (not every such curve was filed as active); inconclusive = small, poorly fitted or top-dose-only effect, or another doubt; inactive = flat fitted curve, though single readings scatter.

Query block: Entry `O=C(O)c1cc(=O)[nH]c(SCc2ccccc2)n1` : reported activity change, negative = inhibition = ?
Result block: -27.5% (inactive)

Query block: Entry `CCCCC[C@H](CC(=O)NO)C(=O)N[C@@H](C(=O)N1CCC[C@H]1CO)C(C)C` : reported activity change, negative = inhibition = ?
Result block: 6.72% [at 38 µM] (inactive)

Query block: Entry `CC(C)C[C@H](N)C(=O)O` : reported activity change, negative = inhibition = ?
Result block: 1.77% (inactive)

Query block: Entry `O=C(Nc1ccc(Nc2ccc3c(c2)C(=O)c2ccccc2C3=O)c2c1C(=O)c1ccccc1C2=O)c1ccccc1` : reported activity change, negative = inhibition = ?
Result block: 18.6% (inactive)

Query block: Entry `CC1(C)O[C@H]2[C@@H](c3[nH]nc4c(=O)[nH]c(=O)[nH]c34)OC[C@H]2O1` : reported activity change, negative = inhibition = ?
Result block: -14.8% (inactive)

====

- Tested On: Pyruvate kinase PKM (Homo sapiens) (UniProt P14618)
- Sequence (P14618 whole entry, looked up): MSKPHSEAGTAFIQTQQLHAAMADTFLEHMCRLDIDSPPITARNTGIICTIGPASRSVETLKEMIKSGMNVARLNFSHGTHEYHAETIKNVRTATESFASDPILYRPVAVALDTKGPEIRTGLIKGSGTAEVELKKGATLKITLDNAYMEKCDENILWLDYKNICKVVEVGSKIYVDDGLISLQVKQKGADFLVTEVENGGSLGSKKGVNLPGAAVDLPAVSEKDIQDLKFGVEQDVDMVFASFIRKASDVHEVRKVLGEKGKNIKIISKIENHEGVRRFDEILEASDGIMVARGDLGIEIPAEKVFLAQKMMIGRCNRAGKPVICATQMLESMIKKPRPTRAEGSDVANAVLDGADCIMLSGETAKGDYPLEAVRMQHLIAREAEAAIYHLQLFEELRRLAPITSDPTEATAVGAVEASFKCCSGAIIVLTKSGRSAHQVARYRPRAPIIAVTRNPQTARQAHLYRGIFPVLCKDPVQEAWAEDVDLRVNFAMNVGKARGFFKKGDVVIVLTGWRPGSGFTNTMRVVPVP
- Assay Remarks: qHTS Assay for Activators of Human Muscle Pyruvate Kinase (AID 954);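 also: 0% = uninhibited enzyme and -100% = no enzyme or full thiadiazolimine inhibition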
- Experimental Parameters: purified human muscle pyruvate kinase, luciferase-coupled luminescence, 1 h; series mostly up to 57.5 µM
Activity calls are given as the source filed them. Calls follow the shape of the dose curve; as a rule, active = well fitted curve in the direction sought with a large enough effect (not every such curve was filed as active); inconclusive = small, poorly fitted or top-dose-only effect, or effect the other way, or another doubt; inactive = no such curve, though single readings can be large or run the other way.
Reported Metric: outcome

Please review the entries below; each comes with its answer.
>>> print(df.to_string())
                      smiles_representation                                 tested_on    result
0  CC(C)(C)[C@@]1(O)CCN2C[C@@H]3c4ccccc4CCc4cccc(c43)[C@@H]2C1  Pyruvate kinase PKM (Homo sapiens) (UniProt P14618)  inactive
1  C[C@H](Oc1ccc(Oc2cnc3ccc(Cl)cc3n2)cc1)C(=O)O  Pyruvate kinase PKM (Homo sapiens) (UniProt P14618)  inactive
2  NC(=O)c1ncn([C@@H]2O[C@@H](CO)[C@@H](O)[C@H]2O)c1O  Pyruvate kinase PKM (Homo sapiens) (UniProt P14618)  inactive
3  C[C@@H](CN1CCC(Cc2ccccc2)CC1)[C@H](O)c1ccc(O)cc1  Pyruvate kinase PKM (Homo sapiens) (UniProt P14618)  inactive
4  OC[C@@H]1O[C@@H](n2cnc3c(NC4CCCCC4)ncnc32)[C@@H](O)[C@H]1O  Pyruvate kinase PKM (Homo sapiens) (UniProt P14618)  inactive

Query block: Entry `N[C@H](CCCC(=O)O)C(=O)O` : reported outcome = ?
Result block: inactive

Query block: Entry `N[C@@H]1C=CC=C(C(=O)O)C1` : reported outcome = ?
Result block: inactive

Query block: Entry `COc1c2c(nc3ccccc13)O[C@@H]([C@@](C)(O)CO)C2` : reported outcome = ?
Result block: inactive

Query block: Entry `Nc1ncnc2c1ncn2[C@@H]1CCCO1` : reported outcome = ?
Result block: inactive

Query block: Entry `CC(C)C[C@H](NC(=O)[C@@H](O)[C@@H](N)Cc1ccccc1)C(=O)O` : reported outcome = ?
Result block: inactive

Query block: Entry `C[C@@H](C(=O)O)c1ccc(C[C@@H]2CCCC2=O)cc1` : reported outcome = ?
Result block: inactive

Query block: Entry `COc1cc([C@H](O)CO)ccc1O` : reported outcome = ?
Result block: inactive

Query block: Entry `C=C/C(C)=C/[C@]1(C)SC(=O)C(C)=C1O` : reported outcome = ?
Result block: inactive

Query block: Entry `Nc1ncnc2c1ncn2[C@@H]1O[C@@H](C(=O)NC2CC2)[C@H](O)[C@@H]1O` : reported outcome = ?
Result block: inactive

Query block: Entry `Oc1ccc([C@@H]2CNCCc3c2cc(O)c(O)c3Cl)cc1` : reported outcome = ?
Result block: inactive

Query block: Entry `CC[C@@H]1CN2CCc3cc(OC)c(OC)cc3[C@H]2C[C@@H]1C[C@@H]1NCCc2cc(OC)c(OC)cc21` : reported outcome = ?
Result block: inactive

Query block: Entry `Nc1nc2c(nc(Br)n2[C@@H]2O[C@H]3COP(=O)(O)O[C@@H]3[C@H]2O)c(=O)[nH]1` : reported outcome = ?
Result block: inactive

Query block: Entry `[N-]=[N+]=Nc1ccc(C(=O)CSC[C@@H](NC(=O)CC[C@@H](N)C(=O)O)C(=O)NCC(=O)O)cc1` : reported outcome = ?
Result block: inactive

Query block: Entry `CN[C@]1(C)[C@@H]2CC[C@@H](C2)C1(C)C` : reported outcome = ?
Result block: inactive

Query block: Entry `CC(=O)[C@@H]1CC[C@@H]2[C@@H]3CC=C4C[C@H](OS(=O)(=O)O)CC[C@@]4(C)[C@H]3CC[C@]21C` : reported outcome = ?
Result block: inactive

Query block: Entry `Cc1nnc(SCC2=C(C(=O)O)N3C(=O)[C@@H](NC(=O)Cn4cnnn4)[C@@H]3SC2)s1` : reported outcome = ?
Result block: inactive

Query block: Entry `OC[C@@H]1NC[C@@H](O)[C@H]1O` : reported outcome = ?
Result block: inactive

Just for reference, PubChem BioAssay (NCATS) is where these values come from.
